Assay: yeast display, Sf9 membrane polyspecificity reagent, FACS + sequencing; frameworks hold sequencing errors
Measurement type: polyreactivity (PSR sort gate)

{"Input sequence": "QVQLVESGGGLVQAGGSLRLSCAASGLIFQYYAMGWYRQAPGKERELVASISGSGSSTYYADSVKGRFTISRDNEKNTVYLQMYSLKPEDTAVYYCAAGWGRGWYDYWGQGTQVTVSS", "Measurement type": "polyreactivity (PSR sort gate)", "Value reported": "high polyreactivity"}
{"Input sequence": "QVQLVESGGGLVQAGGSLRLSSAASGSIFGYAMGCDRHAPGKERELVASTTYADSVKGRFTISRDNAKNTVYLQMNSLKPEDTAVYYCAAEDRPLYWRFPDEMDYWGQGTQVTVSS", "Measurement type": "polyreactivity (PSR sort gate)", "Value reported": "low polyreactivity"}
{"Input sequence": "QVQLVESGGGLVQAGGSLRFSCAASGRICVIYAIGWYRQAPGKERELVAVINDDGSTNYADSVKGRFTISRDNAKNTVYLQMNSLKPEDTAVYYCATDYVRHAGWRRYDYWGQGTQVTVSS", "Measurement type": "polyreactivity (PSR sort gate)", "Value reported": "low polyreactivity"}
{"Input sequence": "QVQLVESGGGLVQAGGSLRLSCAASGRTLYSNAMGWYRQSPGKERELVAAISSRGGRTYYADSVKGRFTISRDNAKNTVYLQMNSLKPVDTAVYYCNAAYGTGRRQAKSDYWGQGTQVTVSS", "Measurement type": "polyreactivity (PSR sort gate)", "Value reported": "high polyreactivity"}

Now look at this one.
Input: // lookup polyreactivity (PSR sort gate) for `QVQLVESGGGLVQAGGSLRLSCAASGRTFTGNVMGWYRQAPGKERELVAAISRSGTSTYYADSVKGRFTISRDNAKNTVYLQMNSLKPEDTAVYYCAARRTAGYRSGEYDYWGQGTQVTVSS`
Output: high polyreactivity
